For each entry below, report its Ki value.
Target: MaltOBP10 (Monochamus alternatus)
Construct: gene obp10; said to encode mature protein (clone primer starts at ATG)
Sequence (A0A1I9HZL5 1-144 limits assumed): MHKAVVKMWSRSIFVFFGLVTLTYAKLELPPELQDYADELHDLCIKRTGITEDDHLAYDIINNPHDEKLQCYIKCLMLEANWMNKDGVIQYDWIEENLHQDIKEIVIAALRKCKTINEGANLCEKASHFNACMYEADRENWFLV
Experiment: fluorescence competitive binding, 1-NPN displacement
Conditions: read-out: MaltOBP10 / pH7.4
Give just the numeric value; µM need not be written.

State the recorded Ki for this entry: CC1=CCC(=C(C)C)CC1 [α-terpinolene] 17.5

State the recorded Ki for this entry: C=CC(=C)CCC=C(C)C [Myrcene] 12.4

State the recorded Ki for this entry: Cc1cc(C(C)(C)C)c(O)c(C(C)(C)C)c1 [Butylated hydroxytoluene] 20.1

State the recorded Ki for this entry: C=C1CC/C=C(\C)CC[C@@H]2[C@@H]1CC2(C)C [β-Caryophyllene] 16.3

State the recorded Ki for this entry: C=C(C)[C@@H]1CC=C(C)CC1 [S-(−)-Limonene] 18.4

State the recorded Ki for this entry: CC1=CC[C@@H]2[C@@H]3[C@H]1[C@@]2(C)CCCC3(C)C [(+)-α-longipinene] 11.6

State the recorded Ki for this entry: C=C1CC[C@H]2O[C@]2(C)CC[C@@H]2[C@@H]1CC2(C)C [(−)-caryophyllene oxide] 16.4

State the recorded Ki for this entry: CC1=CC[C@@H]2C[C@H]1C2(C)C [(+)-α-pinene] 13.3

---

For each entry below, report its Ki value.
Molecular target: MaltOBP9 (Monochamus alternatus, UniProt A0A1I9HZK8)
Construct: gene obp9; said to encode mature protein (clone primer starts at ATG)
Sequence (A0A1I9HZK8 1-140 limits assumed): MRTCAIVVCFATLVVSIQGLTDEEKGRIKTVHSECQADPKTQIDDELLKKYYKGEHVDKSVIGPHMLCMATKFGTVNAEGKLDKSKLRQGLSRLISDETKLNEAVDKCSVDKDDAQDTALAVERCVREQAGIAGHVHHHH
Experiment: biochemical
Parameters: 1-NPN fluorescence displacement competitive binding to 2 uM recombinant OBP; Ki from IC50
Conditions: pH 7.4; read-out: MaltOBP9 / pH7.4
Give just the numeric value; µM need not be written.

State the recorded Ki for this entry: C=C(C)[C@@H]1CC=C(C)CC1 [S-(−)-Limonene] 29.2

State the recorded Ki for this entry: CC1(C)[C@H]2CC[C@]1(C)C(=O)C2 (racemic) 25.9

State the recorded Ki for this entry: CC1=CC[C@@H]2C[C@H]1C2(C)C [(+)-α-pinene] 21.1

State the recorded Ki for this entry: CC1=CCC2C(C1)C2(C)C (stereo not shown) 25.1

State the recorded Ki for this entry: C=C1[C@@H]2CC[C@@H](C2)C1(C)C 22.6

State the recorded Ki for this entry: CC1(C)C(=O)[C@@]2(C)CC[C@@H]1C2 [(+)-Fenchone] 27.8

State the recorded Ki for this entry: CC1=CCC(=C(C)C)CC1 22.2

---

Biological target: MaltOBP9 (Monochamus alternatus, UniProt A0A1I9HZK8)
Construct: gene obp9; said to encode mature protein (clone primer starts at ATG)
Sequence (A0A1I9HZK8 1-140 limits assumed): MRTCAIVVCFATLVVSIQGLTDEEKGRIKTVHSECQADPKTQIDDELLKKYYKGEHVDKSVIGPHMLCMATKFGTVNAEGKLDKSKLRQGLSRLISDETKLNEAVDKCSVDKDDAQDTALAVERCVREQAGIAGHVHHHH
Test: biochemical
Set-up: direct 1-NPN fluorescence saturation binding to 2 uM recombinant OBP; Kd by Scatchard analysis
Conditions: pH 5.0; read-out: MaltOBP9 / pH5.0
Procedure: Fluorescence-binding assays were performed to determine the binding affinities of MaltOBP9 and MaltOBP10 with 17 volatiles in neutral and acidic pH conditions separately using N-phenyl-1-naphthylamine (1-NPN) as the fluorescent probe. […] The binding constants for 1-NPN were determined by adding aliquots of 1 mM 1-NPN to separate samples containing 2 μM of each OBP in 50 mM Tris–HCl at pH 7.4 and room temperature. […]
measurement label: pKd
Units for pKd: none; it is -log10 of a concentration expressed in mol/L.

State the recorded pKd for this entry: c1ccc(Nc2cccc3ccccc23)cc1 6.21

---

Biological target: MaltOBP9 (Monochamus alternatus)
Construct: gene obp9; said to encode mature protein (clone primer starts at ATG)
Sequence (A0A1I9HZK8 1-140 limits assumed): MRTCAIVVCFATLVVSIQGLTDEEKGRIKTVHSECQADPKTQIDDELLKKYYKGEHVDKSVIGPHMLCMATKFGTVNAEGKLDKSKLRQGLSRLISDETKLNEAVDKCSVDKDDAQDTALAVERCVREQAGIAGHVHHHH
Test: biochemical
Parameters: 1-NPN fluorescence displacement competitive binding to 2 uM recombinant OBP; Ki from IC50
Settings: pH 5.0; binder; read-out: MaltOBP9 / pH5.0
measurement label: pKi
Units for pKi: none; it is -log10 of a concentration expressed in mol/L.

Form field - read-out: pKi; system: MaltOBP9 (Monochamus alternatus); submitted item: C=C(C)C1CCC2(C)OC2C1 (single isomer, unassigned; (+)) [(+)-Limonene oxide] 4.31

---

Biological target: MaltOBP10 (Monochamus alternatus)
Construct: gene obp10; said to encode mature protein (clone primer starts at ATG)
Assay: fluorescence titration, Scatchard analysis
Type: binding
Details: read-out: MaltOBP10 / pH7.4
measurement label: pKd
Units for pKd: none; it is -log10 of a concentration expressed in mol/L.

State the recorded pKd for this entry: c1ccc(Nc2cccc3ccccc23)cc1 [1-NPN] 5.87

---

Biological target: MaltOBP10 (Monochamus alternatus)
Construct: gene obp10; said to encode mature protein (clone primer starts at ATG)
Assay: biochemical
Set-up: direct 1-NPN fluorescence saturation binding to 2 uM recombinant OBP; Kd by Scatchard analysis
Settings: pH 5.0; read-out: MaltOBP10 / pH5.0
measurement label: pKd
Units for pKd: none; it is -log10 of a concentration expressed in mol/L.

State the recorded pKd for this entry: c1ccc(Nc2cccc3ccccc23)cc1 [1-NPN] 5.23

---

Target: MaltOBP9 (Monochamus alternatus, UniProt A0A1I9HZK8)
Construct: gene obp9; said to encode mature protein (clone primer starts at ATG)
Assay: fluorescence competitive binding, 1-NPN displacement
Settings: pH 7.4, 50 mM Tris-HCl, room temperature; competitive with 1-NPN, 2 μM protein; read-out: MaltOBP9 / pH7.4
measurement label: pKi
Units for pKi: none; it is -log10 of a concentration expressed in mol/L.

State the recorded pKi for this entry: C=C1[C@H]2CC[C@@H]3[C@H]2[C@H](C(C)C)CC[C@]13C [(+)-Sativene] 4.71

---

Molecular target: MaltOBP10 (Monochamus alternatus)
Construct: gene obp10; said to encode mature protein (clone primer starts at ATG)
Assay: biochemical
Design: 1-NPN fluorescence displacement competitive binding to 2 uM recombinant OBP; Ki from IC50
Details: pH 5.0; read-out: MaltOBP10 / pH5.0
For each entry below, report its Ki value.
Give just the numeric value; µM need not be written.

State the recorded Ki for this entry: CC1=CC[C@@H]2[C@@H]3[C@H]1[C@@]2(C)CCCC3(C)C [(+)-α-longipinene] 21.2

State the recorded Ki for this entry: C=C1CC/C=C(\C)CC[C@@H]2[C@@H]1CC2(C)C 23.5

State the recorded Ki for this entry: C=C1CC[C@@H]2C[C@H]1C2(C)C [(+)-β-pinene] 62.8

State the recorded Ki for this entry: CC1=CCC2C(C1)C2(C)C (stereo not shown) 32.5

State the recorded Ki for this entry: CC1=CC[C@@H]2C[C@H]1C2(C)C [(+)-α-pinene] 17.3

State the recorded Ki for this entry: C=C1[C@@H]2CC[C@@H](C2)C1(C)C 14.8

State the recorded Ki for this entry: C=C(C)[C@H]1CC=C(C)CC1 [R-(+)-Limonene] 55.5

---

Target: MaltOBP9 (Monochamus alternatus)
Construct: gene obp9; said to encode mature protein (clone primer starts at ATG)
Assay: biochemical
Design: 1-NPN fluorescence displacement competitive binding to 2 uM recombinant OBP; Ki from IC50
Details: pH 7.4; binder; read-out: MaltOBP9 / pH7.4
measurement label: pKi
Units for pKi: none; it is -log10 of a concentration expressed in mol/L.

Form field - read-out: pKi; system: MaltOBP9 (Monochamus alternatus); submitted item: C=C(C)C1CCC2(C)OC2C1 (single isomer, unassigned; (+)) [(+)-Limonene oxide] 4.36

---

For each entry below, report its pKi value.
Biological target: MaltOBP9 (Monochamus alternatus, UniProt A0A1I9HZK8)
Construct: gene obp9; said to encode mature protein (clone primer starts at ATG)
Test: fluorescence competitive binding, 1-NPN displacement
Settings: read-out: MaltOBP9 / pH7.4
Units for pKi: none; it is -log10 of a concentration expressed in mol/L.

Form field - read-out: pKi; system: MaltOBP9 (Monochamus alternatus, UniProt A0A1I9HZK8); submitted item: C=C(C)[C@H]1CC=C(C)CC1 [R-(+)-Limonene] 4.77

Form field - read-out: pKi; system: MaltOBP9 (Monochamus alternatus, UniProt A0A1I9HZK8); submitted item: Cc1cc(C(C)(C)C)c(O)c(C(C)(C)C)c1 [Butylated hydroxytoluene] 5.02

Form field - read-out: pKi; system: MaltOBP9 (Monochamus alternatus, UniProt A0A1I9HZK8); submitted item: C=C1CC[C@H]2O[C@]2(C)CC[C@@H]2[C@@H]1CC2(C)C [(−)-caryophyllene oxide] 4.82

Form field - read-out: pKi; system: MaltOBP9 (Monochamus alternatus, UniProt A0A1I9HZK8); submitted item: C=C1CC/C=C(\C)CC[C@@H]2[C@@H]1CC2(C)C 4.79

Form field - read-out: pKi; system: MaltOBP9 (Monochamus alternatus, UniProt A0A1I9HZK8); submitted item: C=CC(=C)CCC=C(C)C 5.11

Form field - read-out: pKi; system: MaltOBP9 (Monochamus alternatus, UniProt A0A1I9HZK8); submitted item: CC1=CC[C@@H]2[C@@H]3[C@H]1[C@@]2(C)CCCC3(C)C [(+)-α-longipinene] 4.90

Form field - read-out: pKi; system: MaltOBP9 (Monochamus alternatus, UniProt A0A1I9HZK8); submitted item: Cc1ccc(C(C)C)cc1 4.93
